Biological target: T1, Human CD137 ECD (human)
T1 construct: also called 4-1BB
T1 sequence (chain, as listed by the source limits assumed): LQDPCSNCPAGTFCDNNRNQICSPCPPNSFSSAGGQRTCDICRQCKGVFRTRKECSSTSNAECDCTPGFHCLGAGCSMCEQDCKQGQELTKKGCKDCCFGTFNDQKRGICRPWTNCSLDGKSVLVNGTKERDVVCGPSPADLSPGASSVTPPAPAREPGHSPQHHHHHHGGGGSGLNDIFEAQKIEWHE
Test: single mutant vs template dBBDu183H
Assay metric: fold change of affinity (fold)
The response must be a number in fold with no trailing unit.

Sample answers from the record:
INSERT INTO assay_data (binder, value) VALUES
  ('H183/L072 VH N31L (antibody, name in Kabat numbering, V domains shown) VH: QVQLVESGGGLVQPGRSLRLSCAASGFTFSLAWMHWVRQAPGKGLEWVAQIKDKGNAYAAYYAPSVKGRFTISRDDSKNSIYLQMNSLKTEDTAVYYCHYVHYASASTVLPAFGVDAWGQGTTVTVSS VL: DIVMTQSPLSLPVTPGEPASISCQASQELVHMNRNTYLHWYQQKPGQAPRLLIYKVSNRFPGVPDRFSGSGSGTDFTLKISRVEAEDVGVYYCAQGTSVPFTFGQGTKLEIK', 0.3),
  ('H183/L072 VH D101M (antibody, name in Kabat numbering, V domains shown) VH: QVQLVESGGGLVQPGRSLRLSCAASGFTFSNAWMHWVRQAPGKGLEWVAQIKDKGNAYAAYYAPSVKGRFTISRDDSKNSIYLQMNSLKTEDTAVYYCHYVHYASASTVLPAFGVMAWGQGTTVTVSS VL: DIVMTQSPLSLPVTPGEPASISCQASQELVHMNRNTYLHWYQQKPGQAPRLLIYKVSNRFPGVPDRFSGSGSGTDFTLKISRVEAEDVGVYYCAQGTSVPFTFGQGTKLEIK', 0);

Let us move to another entry and its fold change of affinity.
fold change of affinity for H183/L072 VH I51G (antibody, name in Kabat numbering, V domains shown) VH: QVQLVESGGGLVQPGRSLRLSCAASGFTFSNAWMHWVRQAPGKGLEWVAQGKDKGNAYAAYYAPSVKGRFTISRDDSKNSIYLQMNSLKTEDTAVYYCHYVHYASASTVLPAFGVDAWGQGTTVTVSS VL: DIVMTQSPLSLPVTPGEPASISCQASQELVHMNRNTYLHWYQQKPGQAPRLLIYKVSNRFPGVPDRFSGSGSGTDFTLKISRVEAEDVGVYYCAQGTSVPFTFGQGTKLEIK is 0.1

Value source: patent US20210388087A1
